Listed below: growth inhibition values for each entry.
MEASUREMENT DESCRIPTION: NCI Yeast Anticancer Drug Screen. Data for the mec2-1 strain (AID 157)
MEASUREMENT SETUP: S. cerevisiae mec2-1 strain, at 50.0 µM, stronger effect = higher value
Compounds without any hit were thinned out: in the full panel of roughly 79,000, 15% have a hit.
Please state the figure in %; there is no need to write the unit.

Per the record, Cc1nn(C(=O)c2ccc(Cl)cc2)c2c1C(c1ccccc1)SC(N)=N2 (stereo not given) has growth inhibition of -38

Consider Cc1nc(C)c(Cc2ccccc2)o1 . Its measured growth inhibition is 20.9

Entry COC(=O)CC1(O)C=CC(=O)c2ccccc21 (stereo not given) ; growth inhibition = -6.65

Looking up CCOC(=O)c1c[nH]c2cc(Cl)cc(OC)c2c1=O , I found its growth inhibition recorded as -5.6

# growth inhibition of CCCCc1nc(CCCC)nc(CCCC)n1 = -14.2

// growth inhibition value for O=S1(=O)C=C(c2ccccc2)C1 : -2.4

Memo: CCC(Oc1ccc(OC)c2c1C(=O)CCC2)C(=O)O (stereo not given) , reported growth inhibition: 1

growth inhibition in this record for Cn1c2ccccc2c2oc(CO)cc(=O)c21 : 0.4

---
Lab book: growth inhibition of O=NN(CCOS(=O)(=O)c1ccc(Br)cc1)C(=O)NC1CCCCC1 noted as 9.25

Data point: NC(=O)C(=CN1C(=O)/C(=C/c2ccccc2O)SC1=S)C(N)=O ; growth inhibition = 2.9

Briefly, growth inhibition measured for N#Cc1ccc(NN=NCCOCCCl)cc1 : 26.6

The recorded growth inhibition for CC1CCC(C(C)C)C(OS(=O)(=O)c2ccccc2)C1 (stereo not given) is -26.7

----------
Consider the following compounds and their measured growth inhibition readings.
MEASUREMENT DESCRIPTION: NCI Yeast Anticancer Drug Screen. Data for the mlh1 rad18 strain (AID 175)
MEASUREMENT SETUP: S. cerevisiae mlh1 rad18 strain growth inhibition; at 50.0 µM; stronger effect = higher value
This is part of a sample that, as a whole, favours compounds with a hit. Of some 79,000 tested, about 15% had one in any assay.
Quick reminder: number only, in %, skip the unit.

The reported value for COC(=O)CCc1cccnc1/C=N/O in terms of growth inhibition is -17.4

Further cases:
get_value(item= O=C(CCC1CCCCC1=O)c1ccc(Br)cc1 (stereo not drawn) , readout=growth inhibition) returns -10.2

Memo: CC(C)NC1(C#N)CCN(Cc2ccccc2)CC1 , reported growth inhibition: -37.5

GET /value?item= Cc1ccc(C#N)c2c1CCC2 &field=growth inhibition returns 2.6

The recorded growth inhibition for entry CC(C)=CCC/C(C)=C/Cn1c(=O)cc[nH]c1=O equals -0.1

Recorded result, CC(=O)NCCCOc1ccc(N)cc1 , growth inhibition: -11.9

The compound identified as CCC1(CC)C(=O)C(CC)(CC)C1=O registered its growth inhibition at 6.55

For this compound ( NNC(=O)C(=O)N/N=C1/CCCC1C(=O)CCC(=O)Nc1ccc(Cl)cc1 (stereo not drawn) ), measured growth inhibition is -6.9

Short answer for COc1ccc(/C(=N/NC(=O)NN)C(c2ccc(OC)cc2)C2(O)CNc3c(Cl)cc(Cl)cc32)cc1 (stereo not drawn) : growth inhibition was 12.7

# compound O=C1CC(=O)c2cccc3cccc1c23 ; its growth inhibition = 27.1

Hey, just so you know, these numbers are from PubChem BioAssay (NCI).
